Taken from paper PMC12470154.

# Tested on: MRSA (SA 180-F strain)
# experimental.protocol: Early biofilm formation, MTT assay
# Type: cell-based, methicillin-resistant Staphylococcus aureus
# Set-up: key: ↓: Decrease in the parameter (optical density) compared to the negative control; −: No decrease in the parameter; ↑: Reverse effect (increase in the optical density compared to the control)
# experimental.conditions: 24 h, 0.3% MTT 2 h 37 °C, OD 595 nm
measure.name: change of optical density after MTT assay vs negative control

Example entries begin here.
In: MRSA (SA 180-F strain) / change of optical density after MTT assay vs negative control / RKKRRQRRRGGGGITDFGIFIGL [R23L^P] : value?
Out: ↑

In: Same read-out for RKKRRQRRRGGGGVVVHINGGKFGGGGSRQIKIWFQNRRMKWKK [R44K^S] ?
Out: ↑

In: Another: ITDFGIFIGLGGGGSRQIKIWFQNRRMKWKK [I31K^P]
Out: ↑

In: Query RKKRRQRRRGGGGVTDFGVFVEI [R23I^T, TAT cell-penetrating peptide linked via glycine linker to amyloidogenic fragment of S1 ribosomal protein of T. thermophilus] next
Out: ↑

Now examine the next entry.
In: Please provide the recorded change of optical density after MTT assay vs negative control for VTDFGVFVEIGGGGSRQIKIWFQNRRMKWKK [V31K^T, amyloidogenic fragment of S1 of T. thermophilus linked via glycine-rich linker to antennapedia peptide] , tested on MRSA (SA 180-F strain).
Out: ↑

----------
# Test system: MRSA (SA 180-F strain)
# experimental.protocol: Mature biofilms, MTT assay
# Assay type: cell-based, methicillin-resistant Staphylococcus aureus
# Parameters: key: ↓: Decrease in the parameter (optical density) compared to the negative control; −: No decrease in the parameter; ↑: Reverse effect (increase in the optical density compared to the control)
# experimental.conditions: mature biofilm: peptide added after 24 h, further 24 h; 0.01-10 mg/mL
measure.name: change of optical density after MTT assay vs negative control

In: Return change of optical density after MTT assay vs negative control measured with MRSA (SA 180-F strain) given this sequence: VTDFGVFVEIGGGGSRQIKIWFQNRRMKWKK [V31K^T, amyloidogenic fragment of S1 of T. thermophilus linked via glycine-rich linker to antennapedia peptide]
Out: ↓ (0.01 mg/mL)

In: Lookup RKKRRQRRRGGGGVVVHINGGKFGGGGSRQIKIWFQNRRMKWKK [R44K^S]
Out: ↓ (0.01 mg/mL)

In: For RKKRRQRRRGGGGITDFGIFIGL [R23L^P] then?
Out: ↓ (0.01 mg/mL)

In: Next sequence: ITDFGIFIGLGGGGSRQIKIWFQNRRMKWKK [I31K^P]
Out: ↓ (0.01 mg/mL)

----------
# System: S. aureus (129B strain)
# experimental.protocol: Antibacterial activity on 0.7% agar (inhibition zone)
# Type: cell-based, Staphylococcus aureus
# Set-up: key: +: The presence of a bacterial growth inhibition zone; −: The absence of a bacterial growth inhibition zone
# experimental.conditions: 1 mg/mL; drop on 0.7% agar, 24 h
measure.name: bacterial growth inhibition zone

In: Look up bacterial growth inhibition zone for this sequence: RKKRRQRRRGGGGVVVHINGGKFGGGGSRQIKIWFQNRRMKWKK [R44K^S]
Out: +

In: Now this one: RKKRRQRRRGGGGVTDFGVFVEI [R23I^T, TAT cell-penetrating peptide linked via glycine linker to amyloidogenic fragment of S1 ribosomal protein of T. thermophilus]
Out: +

In: Likewise for VTDFGVFVEIGGGGSRQIKIWFQNRRMKWKK [V31K^T, amyloidogenic fragment of S1 of T. thermophilus linked via glycine-rich linker to antennapedia peptide] ?
Out: −

In: Param item: RKKRRQRRRGGGGITDFGIFIGL [R23L^P]
Out: +

----------
# System: S. aureus (129B strain)
# experimental.protocol: Antibacterial activity in liquid medium (optical density)
# Type: cell-based, Staphylococcus aureus
# Set-up: key: ↓: Decrease in the parameter (optical density) compared to the negative control; −: No decrease in the parameter; ↑: Reverse effect (increase in the optical density compared to the control)
# experimental.conditions: 24 h, 37 °C, OD 595 nm
measure.name: change of optical density vs negative control

In: Request the reported change of optical density vs negative control associated with RKKRRQRRRGGGGVTDFGVFVEI [R23I^T, TAT cell-penetrating peptide linked via glycine linker to amyloidogenic fragment of S1 ribosomal protein of T. thermophilus]
Out: ↑

In: Next sequence: VTDFGVFVEIGGGGSRQIKIWFQNRRMKWKK [V31K^T, amyloidogenic fragment of S1 of T. thermophilus linked via glycine-rich linker to antennapedia peptide]
Out: −

----------
# Test system: E. coli (MG1655 strain)
# experimental.protocol: Antibacterial activity on 0.7% agar (inhibition zone)
# Assay type: cell-based, Escherichia coli
# Set-up: key: +: The presence of a bacterial growth inhibition zone; −: The absence of a bacterial growth inhibition zone
# experimental.conditions: 0.001 mg/mL; drop on 0.7% agar, 24 h
measure.name: bacterial growth inhibition zone

In: I'd like to know its bacterial growth inhibition zone. The sequence in question is RKKRRQRRRGGGGITDFGIFIGL [R23L^P]
Out: −

In: Try VTDFGVFVEIGGGGSRQIKIWFQNRRMKWKK [V31K^T, amyloidogenic fragment of S1 of T. thermophilus linked via glycine-rich linker to antennapedia peptide] next.
Out: −

In: Same again, this time with RKKRRQRRRGGGGVVVHINGGKFGGGGSRQIKIWFQNRRMKWKK [R44K^S]
Out: −

In: // query: RKKRRQRRRGGGGVTDFGVFVEI [R23I^T, TAT cell-penetrating peptide linked via glycine linker to amyloidogenic fragment of S1 ribosomal protein of T. thermophilus]
Out: −

----------
# Tested on: E. coli (MG1655 strain)
# experimental.protocol: Antibacterial activity on 0.7% agar (inhibition zone)
# Format: cell-based, Escherichia coli
# Design: key: +: The presence of a bacterial growth inhibition zone; −: The absence of a bacterial growth inhibition zone
# experimental.conditions: 1 mg/mL; drop on 0.7% agar, 24 h
measure.name: bacterial growth inhibition zone

In: Please give the measured bacterial growth inhibition zone for this sequence: VTDFGVFVEIGGGGSRQIKIWFQNRRMKWKK [V31K^T, amyloidogenic fragment of S1 of T. thermophilus linked via glycine-rich linker to antennapedia peptide]
Out: −

In: Same for RKKRRQRRRGGGGITDFGIFIGL [R23L^P]
Out: +

In: // repeat for RKKRRQRRRGGGGVVVHINGGKFGGGGSRQIKIWFQNRRMKWKK [R44K^S] and report
Out: −

In: Next sequence up: RKKRRQRRRGGGGVTDFGVFVEI [R23I^T, TAT cell-penetrating peptide linked via glycine linker to amyloidogenic fragment of S1 ribosomal protein of T. thermophilus]
Out: −

----------
# key: entry, value: concentration given with ↓ (decrease in optical density)
# System: MRSA (SA 180-F strain)
# experimental.protocol: Antibacterial activity in liquid medium (optical density)
# Type: cell-based, methicillin-resistant Staphylococcus aureus
# experimental.conditions: 24 h, 37 °C
Report field: quantity (unit follows the number).

In: Look at this sequence and give its reported concentration given with ↓ (decrease in optical density). RKKRRQRRRGGGGITDFGIFIGL [R23L^P]
Out: 0.1 mg/mL

In: What would you report for VTDFGVFVEIGGGGSRQIKIWFQNRRMKWKK [V31K^T, amyloidogenic fragment of S1 of T. thermophilus linked via glycine-rich linker to antennapedia peptide] ?
Out: 1 mg/mL

In: What about this sequence? RKKRRQRRRGGGGVTDFGVFVEI [R23I^T, TAT cell-penetrating peptide linked via glycine linker to amyloidogenic fragment of S1 ribosomal protein of T. thermophilus]
Out: 1 mg/mL

Continuing:
In: Which measured concentration given with ↓ (decrease in optical density) value corresponds to RKKRRQRRRGGGGVVVHINGGKFGGGGSRQIKIWFQNRRMKWKK [R44K^S] ?
Out: 0.1 mg/mL

In: Next sequence up: ITDFGIFIGLGGGGSRQIKIWFQNRRMKWKK [I31K^P]
Out: 1 mg/mL
